# Tested on: DENV-1 strain TC974#666
# Method Description: Tetravalent RT-qPCR assay, serotype 1
# Assay type: cell-based, Dengue virus
# Measurement Setup: Dengue virus, DENV1, Vero, 72 h, RT-qPCR serotype 1 TC974#666, Protocol A, Vero cells, day 3; read-out: EC50

{"Compound": "COc1cc(NC(C(=O)c2c[nH]c3ccc(S(F)(F)(F)(F)F)cc23)c2ccc(Cl)cc2OC)cc(OCCO)c1 (single isomer, unassigned) [Compound 15A]", "EC50, nM": 0.13}
{"Compound": "COc1cc(NC(C(=O)c2c[nH]c3cc(OC)c(C)c(F)c23)c2ccc(Cl)cc2OC)cc(OCCO)c1 (single isomer, unassigned) [Compound 12B]", "EC50, nM": 4.9}
{"Compound": "COc1cc(NC(C(=O)c2c[nH]c3cc(F)c(C)cc23)c2ccc(F)cc2OC)cc(OCCO)c1 (single isomer, unassigned)", "EC50, nM": 4}
{"Compound": "[2H]C(Nc1cc(OC)cc(OCCO)c1)(C(=O)c1c[nH]c2cc(F)ccc12)c1ccc(Cl)cc1OC (single isomer, unassigned) [Compound 13A-D]", "EC50, nM": 5.2}
{"Compound": "COc1cc(NC(C(=O)c2c[nH]c3cc(F)c(C)cc23)c2ccc(Cl)cc2OC)cc(OCCO)c1 (single isomer, unassigned)", "EC50, nM": 1.4}
{"Compound": "COc1cc(NC(C(=O)c2c[nH]c3c4c(ccc23)OCC4)c2ccc(F)cc2OC)cc(OCCO)c1 (single isomer, unassigned)", "EC50, nM": 20}
{"Compound": "COc1cc(NC(C(=O)c2c[nH]c3cc(OC(F)(F)F)c(C)cc23)c2ccc(F)cc2OC)cc(OCCO)c1 (single isomer, unassigned)", "EC50, nM": 24}
{"Compound": "COc1cc(NC(C(=O)c2c[nH]c3cc(F)ccc23)c2ccc(Cl)cc2OC)cc(OCCOP(=O)(O)O)c1 (single isomer, unassigned) [13A-P^b]", "EC50, nM": 4.2}

====

# Test system: Vero cells
# Measurement Setup: African green monkey
Binary call on CC50 with cut-off 8 µM: strictly below means 1 (yes), and equality or higher means 0 (no).

{"Compound": "COc1cc(NC(C(=O)c2c[nH]c3cc(OC(F)(F)F)c(C)cc23)c2ccc(F)cc2OC)cc(OCCO)c1 (single isomer, unassigned) [Compound 4B]", "Answer Label": "1 (yes)"}
{"Compound": "COc1cc(NC(C(=O)c2c[nH]c3cc(F)c(C)cc23)c2ccc(F)cc2OC)cc(OCCO)c1 (single isomer, unassigned) [Compound 3A]", "Answer Label": "1 (yes)"}
{"Compound": "COc1cc(NC(C(=O)c2c[nH]c3ccc(C)cc23)c2ccc(F)cc2OC)cc(OCCO)c1 (single isomer, unassigned) [Compound 5B]", "Answer Label": "0 (no)"}
{"Compound": "COc1cc(NC(C(=O)c2c[nH]c3cc(OC)c(Cl)cc23)c2ccc(F)cc2OC)cc(OCCO)c1 (single isomer, unassigned) [Compound 2B]", "Answer Label": "0 (no)"}
{"Compound": "COc1cc(NC(C(=O)c2c[nH]c3ccc(S(F)(F)(F)(F)F)cc23)c2ccc(Cl)cc2OC)cc(OCCO)c1 (single isomer, unassigned) [Compound 15A]", "Answer Label": "1 (yes)"}

====

# Test system: Vero cells
# Measurement Setup: African green monkey

{"Compound": "[2H]C(Nc1cc(OC)cc(OCCO)c1)(C(=O)c1c[nH]c2cc(F)ccc12)c1ccc(Cl)cc1OC (single isomer, unassigned) [Compound 13B-D]", "CC50 (µM)": 9.6}
{"Compound": "COc1cc(NC(C(=O)c2c[nH]c3c4c(ccc23)OCC4)c2ccc(Cl)cc2OC)cc(OCCO)c1 (single isomer, unassigned) [Compound 11B]", "CC50 (µM)": 8.2}
{"Compound": "COc1cc(NC(C(=O)c2c[nH]c3ccc(S(F)(F)(F)(F)F)cc23)c2ccc(Cl)cc2OC)cc(OCCO)c1 (single isomer, unassigned) [Compound 15B]", "CC50 (µM)": 5.8}

====

Parameter Measured: melting point (°C)

{"Molecule": "COc1cc(NC(C(=O)c2c[nH]c3cc(OC)c(Cl)cc23)c2ccc(F)cc2OC)cc(OCCO)c1 (racemic)", "Measure Unit": "°C", "Measurement": 210}
{"Molecule": "COc1cc(NC(C(=O)c2c[nH]c3c(C)cc(Cl)cc23)c2ccc(F)cc2OC)cc(OCCO)c1 (racemic)", "Measure Unit": "°C", "Measurement": 118}
{"Molecule": "COc1cc(NC(C(=O)c2c[nH]c3cc(F)c(C)cc23)c2ccc(F)cc2OC)cc(OCCO)c1 (racemic)", "Measure Unit": "°C", "Measurement": 197}
{"Molecule": "COc1cc(NC(C(=O)c2c[nH]c3cc(F)c(C)cc23)c2ccc(Cl)cc2OC)cc(OCCO)c1 (racemic)", "Measure Unit": "°C", "Measurement": 177}
{"Molecule": "COc1cc(NC(C(=O)c2c[nH]c3ccc(C)cc23)c2ccc(F)cc2OC)cc(OCCO)c1 (racemic)", "Measure Unit": "°C", "Measurement": 199}

====

# System: DENV-3 strain H87
# Method Description: Tetravalent RT-qPCR assay, serotype 3
# Assay type: cell-based, Dengue virus
# Measurement Setup: RT-qPCR serotype 3 H87, Protocol A, Vero cells, day 3; listed as 13A-P^c; read-out: EC50

{"Compound": "COc1cc(NC(C(=O)c2c[nH]c3cc(F)ccc23)c2ccc(Cl)cc2OC)cc(OCCOP(=O)(O)O)c1 (single isomer, unassigned) [13A-P^b]", "EC50, nM": 28}

====

# Tested on: DENV-2 16681 strain
# Method Description: DENV-2 antiviral assay (eGFP-labeled virus, Vero cells)
# Format: cell-based, Dengue virus
# Measurement Setup: Dengue virus, DENV2, Vero, 72 h, DENV-2 16681 eGFP, Vero cells, MOI 0.5, 3 days

{"Molecule": "COc1cc(NC(C(=O)c2c[nH]c3cc(F)c(C)cc23)c2ccc(F)cc2OC)cc(OCCO)c1 (racemic)", "Measure Unit": "nM", "EC50": 3.5}
{"Molecule": "COc1cc(NC(C(=O)c2c[nH]c3cc(F)ccc23)c2ccc(Cl)cc2OC)cc(OCCOP(=O)(O)O)c1 (racemic)", "Measure Unit": "nM", "EC50": 2.1}
{"Molecule": "COc1cc(NC(C(=O)c2c[nH]c3cc(OC(F)(F)F)c(C)cc23)c2ccc(F)cc2OC)cc(OCCO)c1 (racemic)", "Measure Unit": "nM", "EC50": 11}
{"Molecule": "COc1cc(NC(C(=O)c2c[nH]c3cc(OC)c(Cl)cc23)c2ccc(F)cc2OC)cc(OCCO)c1 (racemic)", "Measure Unit": "nM", "EC50": 1.5}
{"Molecule": "COc1cc(NC(C(=O)c2c[nH]c3cc(F)c(C)cc23)c2ccc(Cl)cc2OC)cc(OCCO)c1 (racemic)", "Measure Unit": "nM", "EC50": 1.2}
{"Molecule": "CCOc1cc2[nH]cc(C(=O)C(Nc3cc(OC)cc(OCCO)c3)c3ccc(F)cc3OC)c2cc1C (racemic)", "Measure Unit": "nM", "EC50": 1.8}
{"Molecule": "COc1cc(NC(C(=O)c2c[nH]c3c(C)cc(Cl)cc23)c2ccc(F)cc2OC)cc(OCCO)c1 (racemic)", "Measure Unit": "nM", "EC50": 2.7}
{"Molecule": "COc1cc(NC(C(=O)c2c[nH]c3ccc(C)cc23)c2ccc(F)cc2OC)cc(OCCO)c1 (racemic)", "Measure Unit": "nM", "EC50": 4.8}

====

# Method Description: in vitro
# Measurement Setup: African green monkey
Recorded CC50 for the following compounds

{"Compound": "COc1cc(NC(C(=O)c2c[nH]c3cc(OC)c(C)c(F)c23)c2ccc(Cl)cc2OC)cc(OCCO)c1 (single isomer, unassigned) [Compound 12A]", "CC50 / µM": 5.6}
{"Compound": "COc1cc(NC(C(=O)c2c[nH]c3cc(F)ccc23)c2ccc(Cl)cc2OC)cc(OCCOP(=O)(O)O)c1 (single isomer, unassigned) [13A-P^b]", "CC50 / µM": 11}
{"Compound": "COc1cc(NC(C(=O)c2c[nH]c3cc(F)c(C)cc23)c2ccc(Cl)cc2OC)cc(OCCO)c1 (single isomer, unassigned) [Compound 9A]", "CC50 / µM": 3.7}
{"Compound": "COc1cc(NC(C(=O)c2c[nH]c3cc4c(cc23)CCO4)c2ccc(Cl)cc2OC)cc(OCCO)c1 (single isomer, unassigned) [Compound 10A]", "CC50 / µM": 4.9}
{"Compound": "COc1cc(NC(C(=O)c2c[nH]c3ccc(C)cc23)c2ccc(F)cc2OC)cc(OCCO)c1 (racemic) [Compound 5]", "CC50 / µM": 14}
{"Compound": "COc1cc(NC(C(=O)c2c[nH]c3cc4c(cc23)CCO4)c2ccc(F)cc2OC)cc(OCCO)c1 (single isomer, unassigned)", "CC50 / µM": 10}
{"Compound": "[2H]C(Nc1cc(OC)cc(OCCO)c1)(C(=O)c1c[nH]c2cc(OC)c(C)cc12)c1ccc(Cl)cc1OC (single isomer, unassigned) [Compound 14A-D]", "CC50 / µM": 3.6}

Hello, the source for this data is patent US10730884B2, in case you need it.
